- ASSAY_PROCEDURE: Polymorphism: solid forms found in salt screen by HT-XRPD
- Type: physicochemical
- APPLIED_CONDITIONS: Example 1 salt screen in MeOH, DME, THF
- Description: The precipitated solids were analyzed by high throughput X-ray powder diffractometry (HT XRPD). Liquid phases (both solutions and mother liquors) were evaporated at ambient conditions and the residual solids were analyzed by HT XRPD. The salt screen experiments were carried out in methanol (MeOH), 1,2-dimethoxyethane (DME) and tetrahydrofuran (THF).
PROPERTY_LABEL: Polymorphism

compound="CC(=O)O.NC(=NC(=O)c1nc(Cl)c(N)nc1N)NCc1ccccc1 [ACA1]" property_label=Polymorphism result_value=Yes
compound="NC(=NC(=O)c1nc(Cl)c(N)nc1N)NCc1ccccc1.NC(=NC(=O)c1nc(Cl)c(N)nc1N)NCc1ccccc1.O=S(=O)(O)O [SUL1]" property_label=Polymorphism result_value=Yes

====

- ASSAY_PROCEDURE: Crystallinity of salt forms by HT-XRPD
- Format: physicochemical
- APPLIED_CONDITIONS: salt screen solid forms
PROPERTY_LABEL: Crystallinity

compound=NC(=NC(=O)c1nc(Cl)c(N)nc1N)NCc1ccccc1.O=C(O)C[C@H](O)C(=O)O result_value=Good
compound=NC(=NC(=O)c1nc(Cl)c(N)nc1N)NCc1ccccc1.O=S(=O)(O)c1cccc2c(S(=O)(=O)O)cccc12 result_value=Good
compound="NC(=NC(=O)c1nc(Cl)c(N)nc1N)NCc1ccccc1.O=C(O)c1ccccc1O [SAL1]" result_value=Good

The origin of these recorded values is patent US20250002463A1.
